Measured normalized growth, listed per entry for reference.
# test-details: chemical genetic growth profiling, strain panel (AID 1159580);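 also: tested at 20 µM; growth read once vehicle control cultures reached saturation at 30 °C; 1 = growth at the plate median or of vehicle wells; lower values mean less growth of the strain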
# test-settings: S. cerevisiae deletion strains, growth OD, locus YMR307W, strain GAS1, stronger effect = lower value
Hit rate of the full screen: of about 5,500 compounds, about 2,000 (36%) were called active. Another 18% or so got no clear call; they are omitted. Some of the results follow.
Please state the value as a number alone, without comment.

Example entries begin here.
Reported normalized growth of C[C@]12CCC(=O)C=C1C=CC1C2CC[C@@]2(C)C1CC[C@@]21CCC(=O)O1 (some centres not stated) : 0.597

Reported normalized growth of `O=C(c1ccc(OCCN2CCCCC2)cc1)c1c(-c2ccc(O)cc2)sc2cc(O)ccc12` : 0.917

Continuing:
Reported normalized growth of COC(=O)CC1C2(C)CC34OC5(C)OC6(C7/C(=C(/O)C(C)C)C(=O)OC(c8ccoc8)C7(C)C(OC(=O)C(C)C)C(OC)C6(O5)C13C)C(OC)C4(OC)C2OC(C)=O (configuration not stated) : 1.05

Reported normalized growth of `COC(=O)c1ccc2c(c1)N(C)S(=O)(=O)CC2=O` : 0.872

* * *

# test-details: chemical genetic growth profiling, strain panel (AID 1159580);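 also: tested at 20 µM; growth read once vehicle control cultures reached saturation at 30 °C; 1 = growth at the plate median or of vehicle wells; lower values mean less growth of the strain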
# test-settings: S. cerevisiae deletion strains, growth OD, locus YOL147C, strain pex11, stronger effect = lower value
Out of some 5,500 compounds screened, about 2,000 (36%) were called active. Another 18% or so got no clear call; they are omitted. This is one part of the list.
Measured normalized growth, listed per entry for reference.
Please state the value as a number alone, without comment.

Example entries begin here.
Reported normalized growth of `COc1ccc(-c2coc3cc(O)ccc3c2=O)cc1` : 0.934

Reported normalized growth of `Cc1[nH]c2ccccc2c1CN(C)C` : 0.993

Reported normalized growth of `O=C1NCC2(CCN(CCc3ccccc3)CC2)O1` : 0.996

Reported normalized growth of Cn1c(=O)c2c(ncn2CC(O)CO)n(C)c1=O (centres undefined) : 0.974

Reported normalized growth of `Oc1cc(O)c2c(c1)O[C@H](c1cc(O)c(O)c(O)c1)[C@H](O)C2` : 0.988

Reported normalized growth of `COc1ccc(-c2coc3cc(O)ccc3c2=O)c(OC)c1` : 0.998

Reported normalized growth of `CN(C)CCN(Cc1ccccc1)c1ccccn1` : 0.978

Reported normalized growth of `CC[C@@]1(O)C[C@H](O[C@H]2C[C@H](N(C)C)[C@H](O)[C@H](C)O2)c2c(cc3c(c2O)C(=O)c2c(O)ccc(O)c2C3=O)[C@H]1C(=O)OC` : 0.13

Continuing:
Reported normalized growth of `CCCCCCCCC(=O)NCc1ccc(O)c(OC)c1` : 0.991

Reported normalized growth of `NS(=O)(=O)c1cc2c(cc1Cl)NC=NS2(=O)=O` : 1

Reported normalized growth of C=C[C@@](C)(O)CCC1C(=C)CCC2[C@@](C)(CO)CCC[C@]12C (some centres undefined) : 1.04

Reported normalized growth of `CC(=O)Oc1cc(OC(C)=O)c2c(c1)O[C@H](c1ccc(OC(C)=O)c(OC(C)=O)c1)[C@H](OC(C)=O)C2` : 1.02

Reported normalized growth of `Oc1cc(O)c2c(c1)O[C@H](c1ccc(O)c(O)c1)[C@H](O)C2` : 0.998

Reported normalized growth of `CN1C2C[C@H](OC(=O)[C@H](CO)c3ccccc3)C[C@H]1[C@@H](O)C2` : 1

Reported normalized growth of `NCCc1cnc[nH]1` : 1.02

Reported normalized growth of `CN1CCC(OC(c2ccccc2)c2ccccc2)CC1` : 0.986

Reported normalized growth of `O=c1c(-c2ccc(O)cc2)coc2cc(O)ccc12` : 0.982

Reported normalized growth of `CC1(C)S[C@@H]2[C@H](NC(=O)[C@H](N)c3ccccc3)C(=O)N2[C@H]1C(=O)O` : 1.01

Reported normalized growth of CN1C2CCC1CC(OC(c1ccccc1)c1ccccc1N)C2 (centres undefined) : 1.02

Reported normalized growth of COc1ccc(OC)c(C(O)CNC(=O)CN)c1 (centres undefined) : 0.982

Reported normalized growth of `CN(C)CCN(Cc1cccs1)c1ccccn1` : 1.02

Reported normalized growth of C=C1CCC2[C@](C)(CO)[C@H](O)CC[C@@]2(C)[C@@H]1C/C=C1/C(=O)OC[C@H]1O (some centres undefined) : 1.04

Reported normalized growth of `CC[C@@]1(O)C[C@H](O)c2c(cc3c(c2O)C(=O)c2c(O)ccc(O)c2C3=O)[C@H]1C(=O)OC` : 0.802

Reported normalized growth of `COc1ccc(CN(CCN(C)C)c2ccccn2)cc1` : 0.988

Reported normalized growth of `COc1cc2c(cc1OC)C(=O)c1ccc(OC)c(OC)c1OCC(=O)C2` : 1.01
